Values were extracted from PubChem BioAssay (NCI).

# Test system: SK-MEL-2 melanoma
# assay method text: NCI tumour cell line growth inhibition, 48 h
Each record here notes measured TGI.

Check out these entries, answers already filled in.
Name the reported TGI value associated with the compound CC(C)CC(=O)NC(C(=O)NC(C(=O)NC(CC(C)C)C(O)CC(=O)NC(C)C(=O)NC(CC(C)C)C(O)CC(=O)O)C(C)C)C(C)C (stereo not drawn)
> 100 µM

How about Cc1c2c(OCC(O)CN3CCN(c4ccccc4)CC3)nn(C)c(=O)c2c(C)n1-c1ccccc1 (stereo not drawn) ?
33.1 µM

How about C/C(=N\NC(=S)NCCCCNC(=S)N/N=C(\C)c1ccccn1)c1ccccc1 ?
97.3 µM

***
Name the reported TGI value associated with the compound COc1cc2c(cc1OC)CC(=O)Nc1cc(OC)c(OC)cc1CC2
> 100 µM

How about COC(=O)c1ccccc1N1C(=O)Cc2ccccc2C1=O ?
> 100 µM

How about COc1cccc(/C=N/NC(=O)c2ccccc2N2CCCC2)c1O ?
> 100 µM

How about CC[C@@H](C(=O)[C@H](C)[C@H](O)[C@@H](C)[C@H]1O[C@H]([C@@H](CC)C(=O)N(CC)CC)CC[C@H]1C)C1O[C@]2(C=C[C@@H](O)[C@]3(CC[C@@](C)([C@H]4CC[C@](O)(CC)[C@H](C)O4)O3)O2)[C@H](C)C[C@@H]1C (stereo partly drawn) ?
9.21 µM

How about O=c1c2ccccc2nc(/C=C(\O)c2ccncc2)n1-c1ccc(Cl)cc1 ?
> 100 µM

###

Each record here notes measured TGI.
# Test system: HOP-92 NSCLC
# assay method text: NCI tumour cell line growth inhibition, 48 h

Which measured TGI belongs to OCCCNc1ccnc2cc(Cl)ccc12 , tested on HOP-92 NSCLC?
> 100 µM

***
Which measured TGI belongs to CCCCC(C(=O)CCC(=O)Nc1ccc(Cl)c(Cl)c1)C(=O)C(C)C (centres undefined) , tested on HOP-92 NSCLC?
> 100 µM

How about O=C1[C@@H]2C(c3ccccc3[N+](=O)[O-])=[N+](c3ccccc3)O[C@@H]2C(=O)N1c1ccc(Cc2ccc(N3C(=O)[C@H]4C(c5ccccc5[N+](=O)[O-])=[N+](c5ccccc5)O[C@H]4C3=O)cc2)cc1 ?
> 100 µM

How about CCOC(=O)C1(N)CCc2[nH][nH]c(=O)c2C1 (centres undefined) ?
> 100 µM

How about O=c1c2ccccc2nc2n1-c1ccccc1SC2 ?
> 100 µM

How about CCCn1cc2c(SC)nc(SC)nc2n1 ?
> 100 µM

How about O=C(c1ccccc1)C(c1ccccc1)C1(O)C(=O)Nc2ccc([N+](=O)[O-])cc21 (centres undefined) ?
> 100 µM

How about COc1cc2ncnc(Nc3cccc(Cl)c3F)c2cc1OC(=O)N1CCN(C)C[C@H]1C ?
> 54.8 µM

How about COc1ccc2nc3c([N+](=O)[O-])ccc(NCCCN(C)C)c3c(NCCCN(C)C)c2c1 ?
> 10 µM

How about O=C(O)c1cc2c(cc1CC(Cc1ccc3c(c1)CCCC3)C(=O)O)CCCC2 (centres undefined) ?
> 100 µM

How about CC1=NNC(=O)C1C1CC(c2c[nH]c3ccccc23)=NN(C(N)=O)C1=O (centres undefined) ?
> 100 µM

How about CCCCCCCCC/C(=N\NC(=O)c1ccncc1)c1ccc(O)c(O)c1O ?
> 100 µM

How about COC(=O)C1=C(OC(=O)/C(=C/c2ccccc2)c2ccc(Cl)cc2)C(C(=O)OC)[C@@]2(O)[C@@H](C(=O)OC)[C@H](C)C[C@@H]1[C@@H]2C(=O)OC (some centres undefined) ?
> 100 µM

How about C=CCN1C[C@H](C)N([C@@H](c2ccc(C(=O)N3CCCCC3)cc2)c2cccc(OC)c2)C[C@H]1C ?
> 100 µM

How about O=C(OCc1ccc([N+](=O)[O-])cc1)N1c2ccccc2[C@@]23O[C@]24CCC[C@H]3C#C/C=C\C#C[C@H]14 ?
> 100 µM

How about COc1cc2c(cc1OCCCOS(C)(=O)=O)N=C[C@@H]1CCCN1C2=O ?
> 100 µM

How about CC1(C)CC[C@]2(C(=O)O)CC[C@]3(C)C(=CC[C@@H]4[C@@]5(C)C[C@H](O)[C@H](O)[C@@](C)(C(=O)O)[C@@H]5CC[C@]43C)[C@@H]2C1 ?
> 100 µM

How about O=[N+]([O-])c1ccc(C2CC(c3ccccc3)=Nc3ccccc3S2)cc1 (centres undefined) ?
> 100 µM

How about C#CCN(Cc1nc2cc(C(F)(F)F)ccc2nc1-c1ccccc1)c1ccc(C)cc1 ?
> 84.8 µM

###

# System: TK-10 renal
# assay method text: NCI tumour cell line growth inhibition, 48 h
Each record here notes measured TGI.

Check out these entries, answers already filled in.
Which measured TGI belongs to C/C(CC(=O)Nc1cc(C)ccc1C)=N/N=C(N)N , tested on TK-10 renal?
> 100 µM

How about COc1ccc(-c2c3c(n(C4OC(COC(C)=O)C(OC(C)=O)C(OC(C)=O)C4OC(C)=O)c(=S)c2C#N)CCC3)cc1 (stereo not given) ?
> 100 µM

How about COc1ccc(NC(=O)CC/C(CC(=O)c2ccco2)=N/NC(N)=S)cc1 ?
> 100 µM

***
Which measured TGI belongs to Nc1ccc(Oc2ccc(C3(c4ccc(Oc5ccc(N)cc5)cc4)C4CC5CC(C4)CC3C5)cc2)cc1 , tested on TK-10 renal?
> 92.4 µM

How about O=[N+]([O-])c1ccc(C2CC(c3ccccc3)=Nc3ccccc3S2)cc1 (stereo not given) ?
> 100 µM

###

# Test system: MDA-MB-231 breast
# assay method text: NCI tumour cell line growth inhibition, 48 h
Each record here notes measured TGI.

Which measured TGI belongs to Cc1ccc(C(=O)Cn2c(C(=O)/C=C/c3cccs3)nc3ccccc32)cc1 , tested on MDA-MB-231 breast?
> 100 µM

How about CCOC(=O)C1(N)CCc2[nH][nH]c(=O)c2C1 (stereo not drawn) ?
> 100 µM

// moving on: another record for TGI
Which measured TGI belongs to COc1cccc(/C=N/NC(=O)c2ccccc2N2CCCC2)c1O , tested on MDA-MB-231 breast?
> 100 µM

###

# Tested on: HCC-2998 colon
# assay method text: NCI tumour cell line growth inhibition, 48 h
Each record here notes measured TGI.

Check out these entries, answers already filled in.
Name the reported TGI value associated with the molecule O=c1[nH]c(=O)c2cc3cc(C4CC(O)C(CO)O4)ccc3cc2[nH]1 (stereo not given)
> 100 µM

How about COc1cc2ncnc(Nc3cccc(Cl)c3F)c2cc1OC(=O)N1CCN(C)C[C@H]1C ?
> 70 µM

How about COc1ccc2[nH]cc(C(=O)C(=O)NC34CC5CC(CC(C5)C3)C4)c2c1 ?
> 100 µM

***
Name the reported TGI value associated with the molecule NC(=O)c1ncn(C2OC(CO)C(O)C2O)c1NC=O (stereo not given)
> 100 µM

How about Cc1[nH]c(=O)[nH]c(=O)c1/C=C/C(=O)NC(CO)CS(=O)Cc1ccccc1 (stereo not given) ?
> 300 µM

###

Each record here notes measured TGI.
# System: A498 renal
# assay method text: NCI tumour cell line growth inhibition, 48 h

Check out these entries, answers already filled in.
Name the reported TGI value associated with the compound COc1cc2c(cc1OCCCOS(C)(=O)=O)N=C[C@@H]1CCCN1C2=O
> 100 µM

How about COC(=O)c1ccccc1NC(=NC1CCCCCC1)NS(=O)(=O)c1ccc(C)cc1 ?
> 100 µM

How about COC(=O)C1=COC(C)C2CN3CCc4c([nH]c5cc(OC)c(OC)cc45)C3CC12 (centres undefined) ?
> 100 µM

How about O=c1cc(CSc2c(-c3ccccc3)c(=O)n(-c3ccccc3)c(=S)n2-c2ccccc2)[nH]c(=O)[nH]1 ?
> 100 µM

***
Name the reported TGI value associated with the compound C/C(=N\NC(=S)NCCCCNC(=S)N/N=C(\C)c1ccccn1)c1ccccc1
15 µM

How about COc1cc2c(cc1Cc1cccc(Cl)c1F)c(=O)c(C(=O)O)cn2[C@@H](CO)C(C)C ?
14.2 µM

How about Nc1nc(Cl)cc(NCC(O)CO)n1 (centres undefined) ?
> 100 µM

###

# System: OVCAR-3 ovarian
# assay method text: NCI tumour cell line growth inhibition, 48 h
measurement kind: TGI

Name the reported TGI value associated with the compound COc1cc2c(cc1OC)CC(=O)Nc1cc(OC)c(OC)cc1CC2
> 100 µM

How about O=C(/C=C/c1ccc(C(F)(F)F)cc1)c1c([O-])on[n+]1-c1ccccc1 ?
3.37 µM

How about CCc1nc(N)nc(N)c1-c1ccc2nnn(O)c2c1 ?
> 100 µM

How about CC(Oc1ccccc1Cl)C(=O)NN1C(=O)CC(=O)NC1=S (stereo not given) ?
> 100 µM

How about N#Cc1ccc(N2CCOCC2)cc1 ?
> 100 µM

How about CCCCCCCCC/C(=N\NC(=O)c1ccncc1)c1ccc(O)c(O)c1O ?
> 35.7 µM

***
Name the reported TGI value associated with the compound Nc1nc(N)c(-c2ccccc2)c(C(=O)Nc2ccccc2)n1
> 100 µM

How about CC[C@@H](C(=O)[C@H](C)[C@H](O)[C@@H](C)[C@H]1O[C@H]([C@@H](CC)C(=O)N(CC)CC)CC[C@H]1C)C1O[C@]2(C=C[C@@H](O)[C@]3(CC[C@@](C)([C@H]4CC[C@](O)(CC)[C@H](C)O4)O3)O2)[C@H](C)C[C@@H]1C (stereo not given in full) ?
8.16 µM

How about Cc1ccc(-c2cc3c4c(nc5ccccc53)C(=O)c3cccnc3-c4n2)cc1 ?
> 50.1 µM

How about CN(C)CCCCC(C(=O)CBr)(c1ccccc1)c1ccccc1 ?
2.69 µM
